subjectOfTest: T1, human ROR1 on the surface of tumor cells (human, UniProt Q01973 30-937)
T1 construct: whole, on cells; also called ROR1 on the cell surface; tumor cell ROR1
experimentDescription: FACS, MDA-MB-231 cells
measureName: binding result

Given the binder Hu005-41 (antibody, V domains shown, Humanized) VH: EVQLVESGGGLVKPGGSLRLSCAASGFTFNSYAMSWVRQTPGKRLEWVATISDAGSYTYYPDNEKGRFTISRDNAKNNLYLQMNSLRAEDTAIYYCVRGGYYYNLYAMDYWGQGTLVTVSS VL: DIVLTQSPDSLAVSLGERATINCKASQSVSFPGTSLMHWYQQKPGQQPKLLIYRASNLEAGVPDRFSGSGSRTDFTLTISSLQAEDVAVYYCQQSREYPWTFGGGTKVEIK , what is its reported binding result? binds

Given the binder Hu005-40 (antibody, V domains shown, Humanized) VH: EVQLVESGGGLVKPGGSLRLSCAASGFTFNSYAMSWVRQTPEKGLEWVATISDAGSYTYYPDNEKGRFTISRDNAKNNLYLQMNSLRAEDTAIYYCVRGGYYYNLYAMDYWGQGTLVTVSS VL: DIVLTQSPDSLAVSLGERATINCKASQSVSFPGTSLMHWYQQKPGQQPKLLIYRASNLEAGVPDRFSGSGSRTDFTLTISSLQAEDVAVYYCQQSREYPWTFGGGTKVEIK , what is its reported binding result? binds

Given the binder Hu001-12 (antibody, V domains shown, Humanized) VH: QVQLVQSGAEVKKPGASVKVSCKASGYTFTDYNLHWVKQAPGQGLEWIGYINPNHDATSYNQKFQGKATLTVDTSTSTVYMELSSLRSEDTAVYYCARRVRTGTGLDDWGQGTTVTVSS VL: DVVMTQSPLSLPVTLGQPASISCRSSHNIVHTNANTYLEWYQQRPGQSPKLLIYKVSNRFSGVPDRFSGSGSGTDFTLKISRVEAEDVGVYYCFQGSRFPYTFGGGTKVEIK , what is its reported binding result? binds
